Reference source: patent US3978045A

PROTOCOL_DETAILS: Acute toxicity (LD50) by oral administration in mice
CONDITION_INFO: mouse, in vivo, per kilogram of body weight
Each entry below carries its recorded LD50.

Query CCCCOC(=O)[C@H](CCCNC(=N)N)NS(=O)(=O)c1cccc2c(N(C)C)cccc12 [N^2 -dansyl-L-arginine n-butyl ester] yields LD50 of > 6000 mg/kg

* * *

Each entry below carries its recorded IC (2-fold clotting time).
TARGET_OR_TEST_SYSTEM: thrombin (Bos taurus)
Construct: mature alpha-thrombin (light plus heavy chain) cut from prothrombin
PROTOCOL_DETAILS: Fibrinogen coagulation time (thrombin-induced clotting of fibrinogen)
Type: biochemical
CONDITION_INFO: bovine fibrinogen, borate saline buffer pH 7.4, thrombin 0.1 ml of 5 units/ml, 25°C; control coagulation time 50-55 seconds; read-out: Concentration required to prolong the coagulation time by a factor of 2
Numeric answer only, unit µM assumed.

{"columns": ["COMPOUND", "TARGET_OR_TEST_SYSTEM", "UNIT_TEXT", "RECORDED_RESULT"],
 "data": [
  ["COCCCNC(=O)[C@H](CCCNC(=N)N)NS(=O)(=O)c1cccc2c(N(C)C)cccc12 [Sample 29]", "thrombin (Bos taurus)", "µM", 65],
  ["CN(C)c1cccc2c(S(=O)(=O)N[C@@H](CCCNC(=N)N)C(=O)NC3CC3)cccc12 [Sample 36]", "thrombin (Bos taurus)", "µM", 200],
  ["CN(C)c1cccc2c(S(=O)(=O)N[C@@H](CCCNC(=N)N)C(=O)Nc3ccccc3)cccc12 [Sample 38]", "thrombin (Bos taurus)", "µM", 100]
]}

Next compound, please.
Query CCCCCCCNC(=O)[C@H](CCCNC(=N)N)NS(=O)(=O)c1cccc2c(N(C)C)cccc12 [Sample 25, N^2 -dansyl-N-(n-heptyl)-L-argininamide] yields IC (2-fold clotting time) of 100
